biological target: cholesteryl ester transfer protein (Homo sapiens, UniProt P11597); construct: As a source of cholesteryl ester transfer protein, plasma from healthy humans was used; from tissue; host or cells: plasma from healthy humans; experiment: In vitro test for the ability to inhibit cholesteryl ester transfer; type: biochemical; details: [3H]-cholesteryl oleate transfer from rHDL-agarose to LDL; human plasma as CETP source; 37° C.; 16-10000 nM, duplicate
pIC50: −log10 of the molar value.
MEASURED ENDPOINT: pIC50

INSERT INTO assay_data (compound, measured_target, numeric_value) VALUES
  ('COc1cc(C(F)(F)F)c(N(C)C(=O)C(F)(F)F)cc1C1=C(CN2C(=O)O[C@H](c3cc(C(F)(F)F)cc(C(F)(F)F)c3)[C@@H]2C)CC(C)(C)CC1 [Compound 227]', 'cholesteryl ester transfer protein (Homo sapiens, UniProt P11597)', 6.85),
  ('COc1ccc([N+](=O)[O-])cc1C1=C(CN2C(=O)O[C@H](c3cc(C(F)(F)F)cc(C(F)(F)F)c3)[C@@H]2C)CC(C(F)(F)F)CC1 (stereo partly drawn) [Compound 194]', 'cholesteryl ester transfer protein (Homo sapiens, UniProt P11597)', 7.00),
  ('COc1ccc(C=O)cc1C1=C(CN2C(=O)O[C@H](c3cc(C(F)(F)F)cc(C(F)(F)F)c3)[C@@H]2C)CCCC1 [Compound 79]', 'cholesteryl ester transfer protein (Homo sapiens, UniProt P11597)', 6.05);

I = COc1cc(F)c(C(=O)C2CC2)cc1C1=C(CN2C(=O)O[C@H](c3cc(C(F)(F)F)cc(C(F)(F)F)c3)[C@@H]2C)CC(C)(C)CC1 [Compound 192]
II = COC(=O)C(C)(C)Cc1ccc(OC)c(C2=C(CN3C(=O)O[C@H](c4cc(C(F)(F)F)cc(C(F)(F)F)c4)[C@@H]3C)CC(C)(C)CC2)c1 [Compound 285]
## Task API: POST /compare with I and II ; response names the item with higher pIC50. Answer by stating the label of the chosen item.
## Result II

---

biological target: cholesteryl ester transfer protein (Homo sapiens, UniProt P11597); construct: As a source of cholesteryl ester transfer protein, plasma from healthy humans was used; assay: In vitro test for the ability to inhibit cholesteryl ester transfer; conditions: [3H]-cholesteryl oleate transfer from rHDL-agarose to LDL; human plasma as CETP source; 37° C.; 16-10000 nM, duplicate
pIC50: −log10 of the molar value.
MEASURED ENDPOINT: pIC50

INSERT INTO measurements (compound, numeric_value) VALUES
  ('COC(=O)CC(C)(C)c1ccc(OC)c(C2=C(CN3C(=O)O[C@H](c4cc(C(F)(F)F)cc(C(F)(F)F)c4)[C@@H]3C)CC(C)(C)CC2)c1 [Compound 308]', 8.15);

I = COC(=O)N(C)c1ccc(OC)c(C2=C(CN3C(=O)O[C@H](c4cc(C(F)(F)F)cc(C(F)(F)F)c4)[C@@H]3C)CC(C)(C)CC2)c1 [Compound 124]
II = COc1cc(C(F)(F)F)c(N(C)C(C)=O)cc1C1=C(CN2C(=O)O[C@H](c3cc(C(F)(F)F)cc(C(F)(F)F)c3)[C@@H]2C)CC(C)(C)CC1 [Compound 210]
## Task Hi, I'm comparing two records. Which one has the lower pIC50, I or II ? Answer by stating the label of the chosen item.
## Result I

---

Biological target: cholesteryl ester transfer protein (Homo sapiens, UniProt P11597)
Construct: As a source of cholesteryl ester transfer protein, plasma from healthy humans was used
Sequence (P11597 18-493): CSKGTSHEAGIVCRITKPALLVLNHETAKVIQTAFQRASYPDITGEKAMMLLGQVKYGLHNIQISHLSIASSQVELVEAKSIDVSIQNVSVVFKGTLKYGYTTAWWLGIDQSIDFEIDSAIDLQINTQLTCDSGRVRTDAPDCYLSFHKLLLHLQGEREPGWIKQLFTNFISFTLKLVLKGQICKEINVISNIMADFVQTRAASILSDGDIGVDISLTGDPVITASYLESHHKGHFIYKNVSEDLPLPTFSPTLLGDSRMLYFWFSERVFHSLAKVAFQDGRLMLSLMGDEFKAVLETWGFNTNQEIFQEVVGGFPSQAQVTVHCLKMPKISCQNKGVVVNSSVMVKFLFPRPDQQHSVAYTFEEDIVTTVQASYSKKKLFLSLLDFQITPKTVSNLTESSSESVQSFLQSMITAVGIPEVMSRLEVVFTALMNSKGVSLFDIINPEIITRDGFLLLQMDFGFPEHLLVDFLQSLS
Assay: In vitro test for the ability to inhibit cholesteryl ester transfer
Conditions: [3H]-cholesteryl oleate transfer from rHDL-agarose to LDL; human plasma as CETP source; 37° C.; 16-10000 nM, duplicate
MEASURED ENDPOINT: IC50 (nM)

INSERT INTO results (compound, measured_target, measured_endpoint, numeric_value) VALUES
  ('COc1ccc(CCC(=O)O)cc1C1=C(CN2C(=O)O[C@H](c3cc(C(F)(F)F)cc(C(F)(F)F)c3)[C@@H]2C)CC(C)(C)CC1 [Compound 273]', 'cholesteryl ester transfer protein (Homo sapiens, UniProt P11597)', 'IC50', 217),
  ('COc1ccc(C(C)C)cc1C1=C(CN2C(=O)O[C@H](c3cc(C(F)(F)F)cc(C(F)(F)F)c3)[C@@H]2C)CC(C)(C)CC1 [Compound 107]', 'cholesteryl ester transfer protein (Homo sapiens, UniProt P11597)', 'IC50', 4);

1 = COc1cc(F)c(C(C)C)cc1C1=C(CN2C(=O)O[C@H](c3cc(C(F)(F)F)cc(C(F)(F)F)c3)[C@@H]2C)CN(CC(F)(F)F)CC1 [Compound 268]
2 = COc1ccc(NC(C)=O)cc1C1=C(CN2C(=O)O[C@H](c3cc(C(F)(F)F)cc(C(F)(F)F)c3)[C@@H]2C)CC(C)(C)CC1 [Compound 110]
3 = COc1ccc(N(C)c2nc(C(F)(F)F)cs2)cc1C1=C(CN2C(=O)O[C@H](c3cc(C(F)(F)F)cc(C(F)(F)F)c3)[C@@H]2C)CC(C)(C)CC1 [Compound 212]
## Task Ascending by IC50, please: list the compounds accordingly. Ranked list of labels, please, in the requested order.
## Result 1, 3, 2

---

target: cholesteryl ester transfer protein (Homo sapiens, UniProt P11597); construct: As a source of cholesteryl ester transfer protein, plasma from healthy humans was used; assay: In vitro test for the ability to inhibit cholesteryl ester transfer; settings: [3H]-cholesteryl oleate transfer from rHDL-agarose to LDL; human plasma as CETP source; 37° C.; 16-10000 nM, duplicate
MEASURED ENDPOINT: IC50 (nM)

INSERT INTO measurements (smiles_code, measured_endpoint, readout_units, numeric_value) VALUES
  ('COc1ccc(C(C)(C)C)cc1C1=C(CN2C(=O)O[C@H](c3cc(C(F)(F)F)cc(C(F)(F)F)c3)[C@@H]2C)CC(C)(C)CC1', 'IC50', 'nM', 10);

a = COc1cc(F)c(C2(C)CC2)cc1C1=C(CN2C(=O)O[C@H](c3cc(C(F)(F)F)cc(C(F)(F)F)c3)[C@@H]2C)CC2(CC1)CC2
b = CCc1cc(OC)c(C2=C(CN3C(=O)O[C@H](c4cc(C(F)(F)F)cc(C(F)(F)F)c4)[C@@H]3C)CC(C)(C)CC2)cc1N(C)C(C)=O
## Task API: POST /compare with a and b ; response names the item with higher IC50. Answer by stating the label of the chosen item.
## Result b
(b: 20 nM, a: 5 nM)

---

target: cholesteryl ester transfer protein (Homo sapiens); construct: As a source of cholesteryl ester transfer protein, plasma from healthy humans was used; test: In vitro test for the ability to inhibit cholesteryl ester transfer; details: [3H]-cholesteryl oleate transfer from rHDL-agarose to LDL; human plasma as CETP source; 37° C.; 16-10000 nM, duplicate
MEASURED ENDPOINT: IC50 (nM)

The cases that follow already have their IC50 on record.
INSERT INTO measurements (compound, measured_endpoint, numeric_value) VALUES
  ('COC(=O)C1(Cc2ccc(OC)c(C3=C(CN4C(=O)O[C@H](c5cc(C(F)(F)F)cc(C(F)(F)F)c5)[C@@H]4C)CC(C)(C)CC3)c2)CCCC1 [Compound 323]', 'IC50', 58),
  ('COc1ccc(C(C)O)cc1C1=C(CN2C(=O)O[C@H](c3cc(C(F)(F)F)cc(C(F)(F)F)c3)[C@@H]2C)CC(C)(C)CC1 (stereo partly drawn) [Compound 103]', 'IC50', 30),
  ('COC(=O)CCc1ccc(OC)c(C2=C(CN3C(=O)O[C@H](c4cc(C(F)(F)F)cc(C(F)(F)F)c4)[C@@H]3C)CC(C)(C)CC2)c1 [Compound 272]', 'IC50', 222);

P = COc1ccc(C(C)C)cc1C1=C(CN2C(=O)O[C@H](c3cc(C(F)(F)F)cc(C(F)(F)F)c3)[C@@H]2C)CC(C(F)(F)F)CC1 (stereo partly drawn) [Compound 108]
Q = COc1ccc(C(C)(C)O)cc1C1=C(CN2C(=O)O[C@H](c3cc(C(F)(F)F)cc(C(F)(F)F)c3)[C@@H]2C)CCCC1 [Compound 82]
R = COc1ccc(-c2nnn(C)n2)cc1C1=C(CN2C(=O)O[C@H](c3cc(C(F)(F)F)cc(C(F)(F)F)c3)[C@@H]2C)CC(C)(C)CC1 [Compound 338]
S = COc1ccc(N(C)C(=O)C(C)(C)OC(C)=O)cc1C1=C(CN2C(=O)O[C@H](c3cc(C(F)(F)F)cc(C(F)(F)F)c3)[C@@H]2C)CC(C)(C)CC1 [Compound 243]
## Task Ascending by IC50, please: list the compounds accordingly. Ranked list of labels, please, in the requested order.
## Result S, P, R, Q
(S: 9 nM, P: 20 nM, R: 35 nM, Q: 80 nM)

A = COc1ccc(N(C)C(=O)CC(F)(F)F)cc1C1=C(CN2C(=O)O[C@H](c3cc(C(F)(F)F)cc(C(F)(F)F)c3)[C@@H]2C)CC(C)(C)CC1 [Compound 130]
B = COc1ccc(CN2CC[C@H](F)C2)cc1C1=C(CN2C(=O)O[C@H](c3cc(C(F)(F)F)cc(C(F)(F)F)c3)[C@@H]2C)CC(C)(C)CC1 [Compound 367]
## Task API: POST /compare with A and B ; response names the item with higher IC50. Answer by stating the label of the chosen item.
## Result B
(B: 83 nM, A: 20 nM)

A = COc1cc(F)c(N(C)C(C)=O)cc1C1=C(CN2C(=O)O[C@H](c3cc(C(F)(F)F)cc(C(F)(F)F)c3)[C@@H]2C)CC(C)(C)CC1 [Compound 215]
B = COc1ccccc1C1=C(CN2C(=O)O[C@H](c3cc(C(F)(F)F)cc(C(F)(F)F)c3)[C@@H]2C)CC(C)(C)CC1 [Compound 18]
C = COc1cc(F)c(C2CC2)cc1C1=C(CN2C(=O)O[C@H](c3cc(C(F)(F)F)cc(C(F)(F)F)c3)[C@@H]2C)CC(C)(C)CC1 [Compound 237]
## Task Could you please sort these 3 entries by IC50 from high to low? Ranked list of labels, please, in the requested order.
## Result B, A, C
